- System: S. maltophilia
- testSummary: microbe, parasite or virus in culture
- Design: Broth microdilution MIC (Sensititre plates, ARIS 2X) against soil bacterial isolates
- measurementContext: Stenotrophomonas maltophilia, Isolate No.=2-1-3
Recorded MIC values for a group of compounds are listed next.
Enter your answer as a number in µg/mL; do not include the unit.

// below: answered compounds
smilesNotation: Cc1nnc(SCC2=C(C(=O)O)N3C(=O)[C@@H](NC(=O)Cn4cnnn4)[C@H]3SC2)s1
readout: MIC
readoutValue: 32
//
smilesNotation: COCC1=C(C(=O)O)N2C(=O)[C@@H](NC(=O)/C(=N\OC)c3csc(N)n3)[C@H]2SC1
readout: MIC
readoutValue: 16
//
smilesNotation: CO[C@@]1(NC(=O)Cc2cccs2)C(=O)N2C(C(=O)O)=C(COC(N)=O)CS[C@@H]21
readout: MIC
readoutValue: 32

Please find the next compound below.
API: value(readout=MIC, system=S. maltophilia) for record CO/N=C(\C(=O)N[C@@H]1C(=O)N2C(C(=O)O)=C(CSc3nc(=O)c(O)nn3C)CS[C@H]12)c1csc(N)n1
32
